Cited source: patent EP3820574B1

biological target: IKZF2 (Homo sapiens, UniProt Q96SW2+Q9UKS7); assay: Prolabel quantification of IKZF2 protein levels in 293GT cells; settings: 24 h, read-out: IKZF2 % protein reduction at 10 µM, 24 h
Sequence (Q9UKS7 whole entry): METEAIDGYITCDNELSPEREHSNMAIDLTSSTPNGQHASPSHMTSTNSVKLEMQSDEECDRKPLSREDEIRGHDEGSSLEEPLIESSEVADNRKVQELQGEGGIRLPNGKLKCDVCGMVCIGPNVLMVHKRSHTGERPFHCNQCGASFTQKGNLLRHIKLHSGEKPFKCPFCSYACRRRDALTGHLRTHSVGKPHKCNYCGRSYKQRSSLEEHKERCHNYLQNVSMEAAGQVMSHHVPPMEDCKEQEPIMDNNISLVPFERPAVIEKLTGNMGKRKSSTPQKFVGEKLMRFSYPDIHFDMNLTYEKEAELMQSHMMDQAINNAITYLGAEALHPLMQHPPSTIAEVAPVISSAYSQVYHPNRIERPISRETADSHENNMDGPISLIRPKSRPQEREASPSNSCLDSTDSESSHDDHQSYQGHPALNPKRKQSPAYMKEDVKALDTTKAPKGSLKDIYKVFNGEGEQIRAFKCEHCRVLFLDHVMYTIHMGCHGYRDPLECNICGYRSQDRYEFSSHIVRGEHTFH
Sequence (Q96SW2 whole entry): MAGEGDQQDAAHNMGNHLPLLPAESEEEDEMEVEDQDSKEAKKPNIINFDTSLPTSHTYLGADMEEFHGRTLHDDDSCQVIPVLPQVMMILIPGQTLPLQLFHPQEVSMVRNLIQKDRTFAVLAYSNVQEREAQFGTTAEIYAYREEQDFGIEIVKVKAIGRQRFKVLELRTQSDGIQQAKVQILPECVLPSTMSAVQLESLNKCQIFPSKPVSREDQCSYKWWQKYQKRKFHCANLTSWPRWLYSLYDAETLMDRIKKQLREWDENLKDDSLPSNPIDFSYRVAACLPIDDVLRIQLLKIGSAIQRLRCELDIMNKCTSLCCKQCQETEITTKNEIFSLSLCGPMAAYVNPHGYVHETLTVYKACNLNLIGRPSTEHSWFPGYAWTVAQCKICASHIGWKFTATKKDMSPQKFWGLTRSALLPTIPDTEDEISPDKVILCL
Sequence (Q16531 whole entry partner): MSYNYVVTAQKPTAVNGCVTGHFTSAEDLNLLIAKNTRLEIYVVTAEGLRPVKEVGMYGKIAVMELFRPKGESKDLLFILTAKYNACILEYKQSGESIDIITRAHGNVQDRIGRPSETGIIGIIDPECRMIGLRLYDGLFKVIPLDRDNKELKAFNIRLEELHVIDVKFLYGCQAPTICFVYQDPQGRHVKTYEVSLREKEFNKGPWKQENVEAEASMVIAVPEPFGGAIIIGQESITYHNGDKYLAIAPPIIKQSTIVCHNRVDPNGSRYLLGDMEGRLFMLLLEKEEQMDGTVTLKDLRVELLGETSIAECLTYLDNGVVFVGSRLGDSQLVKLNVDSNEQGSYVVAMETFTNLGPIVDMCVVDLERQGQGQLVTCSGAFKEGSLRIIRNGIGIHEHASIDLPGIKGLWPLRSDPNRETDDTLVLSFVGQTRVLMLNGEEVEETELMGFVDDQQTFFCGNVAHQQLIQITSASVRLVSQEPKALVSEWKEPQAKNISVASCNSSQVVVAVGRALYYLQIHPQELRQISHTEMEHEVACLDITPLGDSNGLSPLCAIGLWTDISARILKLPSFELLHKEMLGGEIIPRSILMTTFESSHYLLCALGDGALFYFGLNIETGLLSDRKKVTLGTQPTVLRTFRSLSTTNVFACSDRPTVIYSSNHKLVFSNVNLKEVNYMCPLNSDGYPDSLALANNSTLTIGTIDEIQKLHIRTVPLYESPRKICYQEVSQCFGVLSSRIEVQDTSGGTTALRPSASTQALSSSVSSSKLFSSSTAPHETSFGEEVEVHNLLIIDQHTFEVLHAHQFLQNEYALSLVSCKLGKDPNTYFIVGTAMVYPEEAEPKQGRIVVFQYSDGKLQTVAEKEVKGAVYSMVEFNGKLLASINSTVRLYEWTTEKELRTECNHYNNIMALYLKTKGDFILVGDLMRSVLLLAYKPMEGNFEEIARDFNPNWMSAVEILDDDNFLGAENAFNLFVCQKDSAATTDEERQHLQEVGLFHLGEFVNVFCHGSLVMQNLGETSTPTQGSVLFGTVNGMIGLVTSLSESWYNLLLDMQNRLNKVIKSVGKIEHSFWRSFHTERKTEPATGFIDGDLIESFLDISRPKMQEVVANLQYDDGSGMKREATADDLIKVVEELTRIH
endpoint-name: inhibition at 10 µM (%)
One number for each entry, in %.

Reference set, count: 2
>  <compound>
CN[C@H]1CCCC[C@@H]1N(C)c1ccc2c(c1)CN(C1CCC(=O)NC1=O)C2=O (stereo partly drawn) [Compound I-8]

>  <inhibition at 10 µM / %>
65

$$$$
>  <compound>
O=C1CCC(N2Cc3cc(N[C@H]4CCCC[C@@H]4NCc4ccccc4)ccc3C2=O)C(=O)N1 (stereo partly drawn) [Compound I-3]

>  <inhibition at 10 µM / %>
65

$$$$

Continue with the compound presented below.
Give inhibition at 10 µM for CN[C@H]1CCCC[C@@H]1N(C)c1ccc2c(c1)C(=O)N(C1CCC(=O)NC1=O)C2=O (stereo partly drawn) [Compound I-114]
70
